Provide the reported inhibition of each item.
# tgt: Solute carrier family 2, facilitated glucose transporter member 1 (Homo sapiens)
# protocol_details: ST_JUDE_LEISH: Cytotoxicity at 2uM final concentration against transgenic Leishmania Mexicana promastigotes LmGLUT1 that are glucose transport deficient and complemented with the human glucose transporter GLUT1. Activity is measured by DNA content using SYBR green in vitro
# Type: functional
Give your result in % as a bare value.

In: Report the value of inhibition obtained on Solute carrier family 2, facilitated glucose transporter member 1 (Homo sapiens) for Cc1cc(F)ccc1-c1nc(NCC(O)CNCCc2ccccc2)nc2c1ccc(=O)n2-c1c(F)cccc1F (centres undefined) .
Out: 5.26

In: Enter inhibition (test system Solute carrier family 2, facilitated glucose transporter member 1 (Homo sapiens)) for `CO/C(=C\C=C\c1cc2cc(Cl)c(Cl)cc2[nH]1)C(=O)NCCCN1CCN(c2cccc(CCCO)c2)CC1`
Out: 6

In: Fill in: inhibition on Solute carrier family 2, facilitated glucose transporter member 1 (Homo sapiens), entry Cc1ccccc1C1CCN(C2CCC(NC(=O)c3ccc(-c4ccccc4)s3)CC2)CC1 (centres undefined)
Out: 1.32

In: Give Solute carrier family 2, facilitated glucose transporter member 1 (Homo sapiens) inhibition for the following compound: `Cc1cccn2c(=O)c3cc(C(=O)NCCN4CCOCC4)c(=N)n(CCc4ccccc4)c3nc12`
Out: -0.34

In: Enter inhibition (test system Solute carrier family 2, facilitated glucose transporter member 1 (Homo sapiens)) for `C[C@H](N[C@H]1CCCc2c1[nH]c1ccc(Br)cc21)c1ccccc1`
Out: 2.46

In: Name the value of inhibition reported for `O=C(/C=C/c1ccc(Cl)c(Cl)c1)NCCCCCN1CCN(C(=O)Nc2cccc(F)c2)CC1` when tested on Solute carrier family 2, facilitated glucose transporter member 1 (Homo sapiens).
Out: 3.99

In: State the measured inhibition (Solute carrier family 2, facilitated glucose transporter member 1 (Homo sapiens)) of `CCC(C)(C)c1ccc(Oc2ccc(NC(=O)Nc3ccc(Cl)c(Cl)c3)cc2)cc1`
Out: 1.75

In: GET inhibition | system: Solute carrier family 2, facilitated glucose transporter member 1 (Homo sapiens) | item: `N#Cc1ccc(Sc2nnc(-c3ccccc3Cl)n2CC2CCCCC2)cc1[N+](=O)[O-]`
Out: 2.9

In: Under Solute carrier family 2, facilitated glucose transporter member 1 (Homo sapiens): report inhibition of `C[C@@H](Oc1cc(-n2cnc3ccc(OCC4CCN(S(C)(=O)=O)CC4)cc32)sc1C(N)=O)c1ccccc1C(F)(F)F` .
Out: 11.6
